B1: Unconventional myosin-Ie, residues 1051 to 1108; numbered along this chain, Q12965 (parent)
chain: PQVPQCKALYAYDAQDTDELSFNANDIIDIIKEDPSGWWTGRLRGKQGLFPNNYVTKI

variants of: B1; assay: abundance fitness (aPCA) (normalised: wild type 0, dead -1); higher = more abundant; growth selection in yeast, the domain comes from the species named; details: Homo sapiens
MEASURED ATTRIBUTE: abundance fitness
API doc: respond with a numeric literal and nothing else, no unit.

>>> reported_measurement("PQVPQCKALYAYDAQDTDELSFNANDIIDIIKEDPSGWWTGRLMGKQGLFPNNYVTKI [R44M]")
-0.179
>>> reported_measurement("PQVPQCKALYAYDAQCTDELSFNANDIIDIIKEDPSGWWTGRLRGKQGLFPNNYVTKI [D16C]")
-0.057
>>> reported_measurement("PQVPQCKALYAYDEQDTDELSFNANDIIDIIKEDPSGWWTGRLRGKQGLFPNNYVTKI [A14E]")
-0.695
>>> reported_measurement("PQVPQCKALYAYDAQDTDELSFNANDIIDIIKEDPSGWWTGELRGKQGLFPNNYVTKI [R42E]")
-0.049
>>> reported_measurement("PQVPMCKALYAYDAQDTDELSFNANDIIDIIKEDPSGWWTGRLRGKQGLFPNNYVTKI [Q5M]")
-0.041

Exam item: Form field: reported abundance fitness of PQVPQCKALYAYDAQDTDELSFNANDIIDIIKEDPSGWWTGRTRGKQGLFPNNYVTKI [L43T]
Marked response: -0.113

Exam item: Form field: reported abundance fitness of EQVPQCKALYAYDAQDTDELSFNANDIIDIIKEDPSGWWTGRLRGKQGLFPNNYVTKI [P1E]
Marked response: -0.144

Exam item: Form field: reported abundance fitness of PQVPQCKALYAYDAQDTDELSFNANDIIDIIKDDPSGWWTGRLRGKQGLFPNNYVTKI [E33D]
Marked response: -0.271

Exam item: Form field: reported abundance fitness of PQVPQCKALYAYDAQDTDELSFNANDIIDIIKEDPSGWWTRRLRGKQGLFPNNYVTKI [G41R]
Marked response: -0.906

Exam item: Form field: reported abundance fitness of PQVPQCKALYAYDAQDTDEESFNANDIIDIIKEDPSGWWTGRLRGKQGLFPNNYVTKI [L20E]
Marked response: -0.807

Exam item: Form field: reported abundance fitness of PQVPQCKALYAYDAQDTDELSFNANDIIDILKEDPSGWWTGRLRGKQGLFPNNYVTKI [I31L]
Marked response: 0.001

Exam item: Form field: reported abundance fitness of PQVPQCKALYAYDAQDTDELSFNANDIIDIIKEDPSGWWTGRLRGKQGLFPNNYVTMI [K57M]
Marked response: -0.34

Hello, the source for this data is the Human Domainome abundance scans (Beltran et al. 2025), in case you need it.
